# test_system: Alpha-1B adrenergic receptor (Homo sapiens)
# Sequence (P35368 whole entry): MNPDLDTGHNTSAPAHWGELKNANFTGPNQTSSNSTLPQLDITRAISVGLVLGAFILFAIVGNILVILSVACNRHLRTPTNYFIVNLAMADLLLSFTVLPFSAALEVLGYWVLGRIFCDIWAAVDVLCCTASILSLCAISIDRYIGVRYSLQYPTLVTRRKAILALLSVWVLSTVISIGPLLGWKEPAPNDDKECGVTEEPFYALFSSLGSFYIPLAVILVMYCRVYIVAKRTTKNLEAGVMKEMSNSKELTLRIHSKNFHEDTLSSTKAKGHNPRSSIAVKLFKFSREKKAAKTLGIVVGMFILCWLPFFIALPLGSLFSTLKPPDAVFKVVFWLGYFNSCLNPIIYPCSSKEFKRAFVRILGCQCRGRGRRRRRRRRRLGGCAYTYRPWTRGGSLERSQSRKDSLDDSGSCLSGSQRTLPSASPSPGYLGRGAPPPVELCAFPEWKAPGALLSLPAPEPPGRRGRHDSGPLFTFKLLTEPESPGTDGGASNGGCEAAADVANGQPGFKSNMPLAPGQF
# method: Evaluated for the ability to displace [125I]- HEAT from human cloned Alpha-1B adrenergic receptor stably expressed in LM cells.
# Format: cell-based
Please provide measured log10(Ki) for the entries that follow.
log10 Ki, nM

(Q) So what does the record say about log10(Ki) for "CC1=C(C(=O)NCCCN2CCC(C#N)(c3ccc(F)cc3)CC2)[C@@H](c2ccc(F)c(F)c2)NC(=O)N1C" ?
(A) 3.04

(Q) Requested read-out: log10(Ki). Entry: "O=C1NC(C(F)(F)F)=C(C(=O)NCCCN2CCC(c3ccc(F)cc3)CC2)[C@@H](c2ccc(F)c(F)c2)N1"
(A) 2.43

(Q) Report log10(Ki) for "CC1=C(C(=O)NCCCN2CCC(c3ccccc3C#N)CC2)[C@@H](c2ccc(F)c(F)c2)NC(=O)N1" please.
(A) 2.20

(Q) Which log10(Ki) is reported for this molecule? "COCC1=C(C(=O)NCCCN2CCC(c3ccccc3C#N)CC2)[C@@H](c2ccc(F)c(F)c2)NC(=O)N1"
(A) 2.45

(Q) What does the data say about its log10(Ki)? Entry: "COCC1=C(C(=O)NCCCN2CCC(c3ccc(F)cc3)CC2)[C@@H](c2ccc(F)c(F)c2)NC(=O)N1"
(A) 1.61

(Q) For the molecule shown here, "N#Cc1cc(F)ccc1C1CCN(CCCNC(=O)C2=CNC(=O)N[C@@H]2c2ccc(F)c(F)c2)CC1" , give the reported log10(Ki).
(A) 1.41

(Q) Which measured log10(Ki) value corresponds to "CC1=C(C(=O)NCCCN2CCC(c3ccc(F)cc3C#N)CC2)[C@@H](c2ccc(F)c(F)c2)NC(=O)N1" ?
(A) 1.94
